Where do these numbers come from? They come from ChEMBL document CHEMBL3885861.

The following compounds are listed with their measured RBC values.
# Species: Rattus norvegicus
# methodDescription: Open TG-GATES - Regimen: Daily Repeat
# Format: toxicity, organism-based, Sprague-Dawley
# Parameters: regimen Daily Repeat, gender Male, age 6 weeks
# experimentalContext: in vivo, po, 0 mg/kg, […], tissue Blood, route gavage, dose level Control, time 7 day
Your answer should be a number followed by the unit of measure.

CCc1oc2ccccc2c1C(=O)c1cc(I)c(O)c(I)c1 : 662.2 x10_4/ul
CN1C(=O)OC(C)(C)C1=O : 641.8 x10_4/ul
O=C(O)c1cccnc1 : 681 x10_4/ul

Return RBC for the following compound: O=C(N[C@H](CO)[C@H](O)c1ccc([N+](=O)[O-])cc1)C(Cl)Cl 640.6 x10_4/ul
